MEASUREMENT_PROTOCOL: Hair nuance test
Parameters: key: CIELAB L*, a*, b* coordinates
TEST_CONDITIONS: Type C (Oxidative with coupler resorcinol)
Each item that follows carries a reported L*.
Lab note: record the figure alone, no unit after it.

MOLECULE: Nc1ccc(N)c(OCCO)c1
L*: 29

Data request, read-out L*, for `CNCCOc1cc(N)ccc1N`
25

---

The reader will find reported a* values listed item by item below.
MEASUREMENT_PROTOCOL: Hair nuance test
Parameters: key: CIELAB L*, a*, b* coordinates
TEST_CONDITIONS: Type C (Oxidative with coupler resorcinol)
Experimental: 35 g of bleaching powder was mixed with 50 mL of developer then applied onto undyed black hair (wrapped in aluminium foil to enhance the bleaching process) and left on for 45 min. The hair was then rinsed with deionized water and shampoo and left to dry. This process was repeated twice. […]
Kindly provide the number alone.

Consider the reported a* for these molecules:
COMPOUND: Nc1ccc(N)c(OCCO)c1
OBSERVED: 19
//
COMPOUND: CNCCOc1cc(N)ccc1N
OBSERVED: 14
//
COMPOUND: CCC(=O)COc1cc(N)ccc1N
OBSERVED: 18

Let us examine a further case.
Consider the molecule shown here: `COC(COc1cc(N)ccc1N)OC` What is its recorded a*?
18
